- experimental-target: 5-HT1D receptor (Homo sapiens, UniProt P28221)
- Construct: expressed in transfected cells
- Sequence (P28221 whole entry): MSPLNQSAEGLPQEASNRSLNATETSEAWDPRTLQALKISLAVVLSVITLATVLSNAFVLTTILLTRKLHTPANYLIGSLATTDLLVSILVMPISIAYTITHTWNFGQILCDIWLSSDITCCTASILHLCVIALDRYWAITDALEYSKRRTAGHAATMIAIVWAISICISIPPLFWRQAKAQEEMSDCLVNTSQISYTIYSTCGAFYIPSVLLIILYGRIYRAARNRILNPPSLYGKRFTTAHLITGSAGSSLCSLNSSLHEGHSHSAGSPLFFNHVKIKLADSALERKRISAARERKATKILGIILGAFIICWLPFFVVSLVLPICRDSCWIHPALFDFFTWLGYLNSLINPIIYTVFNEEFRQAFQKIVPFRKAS
- test-protocol: Binding affinity, inhibition of 3H-serotonin binding to membranes of cells expressing the 5-HT1D receptor
- condition-notes: at a concentration of 100 nM
readout-label: binding at the 5-HT1D receptor (in words)

compound="CN1CCC[C@H]1Cc1c[nH]c2ccc(C3=CC4CCCN4CC3)cc12 (some centres unmarked) [Example 7a]" assay_value="little, if any, binding"
compound="CN1CCC[C@H]1Cc1c[nH]c2ccc(C3(O)CCN4CCCC4C3)cc12 (some centres unmarked) [Example 6a]" assay_value="little, if any, binding"
compound="CN1CCC[C@H]1Cc1c[nH]c2ccc(C3CCN4CCCC4C3)cc12 (single isomer, unassigned) [Example 8b]" assay_value="little, if any, binding"
compound="CN1CCC[C@H]1Cc1c[nH]c2ccc(C3CCN4CCCC4C3)cc12 (single isomer, unassigned) [Example 8a]" assay_value="little, if any, binding"
compound="CN1CCC[C@H]1Cc1c[nH]c2ccc(C3=CCN4CCCC4C3)cc12 (some centres unmarked) [Example 7b]" assay_value="little, if any, binding"

src = patent US6329390A
